# system: catalytic domain of human JAK3 (Homo sapiens)
# Sequence (P52333 781-1124 limits assumed): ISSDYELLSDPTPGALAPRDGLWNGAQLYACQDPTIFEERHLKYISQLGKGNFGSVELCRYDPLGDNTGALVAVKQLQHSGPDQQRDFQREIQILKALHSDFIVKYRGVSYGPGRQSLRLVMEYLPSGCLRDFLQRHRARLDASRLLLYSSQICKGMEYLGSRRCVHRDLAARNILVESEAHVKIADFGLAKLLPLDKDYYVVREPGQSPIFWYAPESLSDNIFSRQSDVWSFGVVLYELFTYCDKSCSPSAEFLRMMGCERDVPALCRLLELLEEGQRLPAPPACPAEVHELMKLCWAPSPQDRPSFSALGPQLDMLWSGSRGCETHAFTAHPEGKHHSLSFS
# protocol: Inhibition of JAK3 activity (Z'-Lyte Kinase Assay kit-Tyr 6 Peptide)
# Assay type: biochemical
# Description: The inhibition of JAK3 kinase activity was determined in 384-well assay microplates using the Z′-Lyte® Kinase Assay kit-Tyr 6 Peptide kit, supplied by Invitrogan (Ref: PV4122), following the manufacturer's instructions. […]
observation-type: inhibition at 1 µM

* Cn1ccnc1-c1nc2cnc(-c3cnn4ccc(C#N)cc34)nc2n1C1CCOCC1 | > 50%
* O=C1CCCN1c1nc2cnc(-c3cnn4ccccc34)nc2n1C1CCOCC1 | > 50%
* Cn1c(=O)n(C2CCOCC2)c2nc(-c3cnn4ccccc34)ccc21 | > 50%
* C[C@H](CO)n1c(=O)[nH]c2cnc(-c3cnn4ccc(C#N)cc34)nc21 | > 50%
* Cn1c(=O)n([C@H]2CCCN(C(=O)C3(C#N)CC3)C2)c2nc(-c3cnn4ccccc34)ccc21 | > 50%
* N#Cc1ccn2ncc(-c3ccc4[nH]c(=O)n(C5CCOCC5)c4n3)c2c1 | > 50%
* CCNc1nc2cnc(-c3cnn4ccc(C#N)cc34)nc2n1C1CCOCC1 | > 50%
* Cn1c(=O)n([C@H]2CC[C@H](O)CC2)c2nc(-c3cnn4ccc(C#N)cc34)ncc21 | > 50%
